- Tested on: MDA-MB-231 breast
- Procedure details: NCI tumour cell line growth inhibition, 48 h
Measure name: TGI

{"Compound": "COC(C/C(=C/CO[Si](C(C)C)(C(C)C)C(C)C)C(=O)Nc1ccccc1I)OC", "TGI": "46 µM"}
{"Compound": "Oc1ccc(Br)cc1/C=N/NC(=S)NC12CC3CC(CC(C3)C1)C2", "TGI": "5.54 µM"}
{"Compound": "CCCCCCNC(=O)Oc1ccc(/C(=C(\\C)c2ccccc2)c2ccc(OCCN3CCCCC3)cc2)cc1", "TGI": "4.96 µM"}
{"Compound": "O=C(O)c1ccccn1", "TGI": "> 100 µM"}
{"Compound": "O=C(Nc1cccc2cccnc12)c1ccc(N2C(=O)[C@@H]3[C@H](C2=O)[C@@H]2C=C[C@H]3C2)cc1", "TGI": "> 100 µM"}

Next, consider the following compound.
Task item: Give the reported TGI for this compound. COC(=O)C(/C(=N/N)C(=O)Nc1cc(Cl)c(Cl)cc1Cl)c1nc2ccc(Cl)cc2[nH]c1=O (centres undefined)
Reply: > 100 µM

* * *

- System: SNB-75 CNS
- Procedure details: NCI tumour cell line growth inhibition, 48 h; in the data active = GI50 below about 0.43 µM; inactive = the rest
Answer with one of the outcomes Yes for active, No for inactive

Worked cases, answers included:
{"Compound": "COc1cccc(Cn2cc3c(c2)-c2oncc2CC3)c1", "Category label": "Yes"}
{"Compound": "CCN(Cc1nc2cc(C(F)(F)F)ccc2nc1-c1ccccc1)c1ccc(OC)c(OC)c1", "Category label": "No"}
{"Compound": "O=C(NCCN1CCOCC1)Nc1ccc(-c2cc3c(Nc4ccc(Oc5cccc(C(F)(F)F)c5)c(Cl)c4)ncnc3s2)cc1", "Category label": "No"}
{"Compound": "C[C@H]1CCC/C=C/[C@@H]2C[C@H](O)C[C@H]2[C@H](O)[C@@H](S(=O)CCN)CC(=O)O1 (stereo not given in full)", "Category label": "Yes"}

Okay, now this compound:
Task item: Hi team, can someone confirm the assay call for `BrC(Br)(Br)c1cnc2ccccc2n1` ?
Reply: No

* * *

- System: NCI-H522 lung
- Procedure details: NCI tumour cell line growth inhibition, 48 h
Here the recorded TGI is given for each entry.

{"Compound": "O=C1Nc2ccccc2[C@]12C[C@H]2c1ccccn1", "Experimental target": "NCI-H522 lung", "TGI": "> 100 µM"}
{"Compound": "O=C(CCCNC(=O)OCc1ccccc1)OCc1ccc2c(c1)C(=O)c1ccccc1C2=O", "Experimental target": "NCI-H522 lung", "TGI": "> 100 µM"}
{"Compound": "c1ccc2c[n+](CCCCCCCCCC[n+]3ccc4ccccc4c3)ccc2c1", "Experimental target": "NCI-H522 lung", "TGI": "> 10 µM"}
{"Compound": "COc1ccc(/C(Cl)=C(\\C=O)c2ccc(OC)c(OC)c2)cc1OC", "Experimental target": "NCI-H522 lung", "TGI": "> 100 µM"}

Next, consider the following compound.
Task item: Give the reported TGI for this compound. OCC(O)COc1c(Cl)ccc(Cl)c1Cl (centres undefined)
Reply: > 100 µM

* * *

- Test system: RPMI-8226 leukemia
- Procedure details: NCI tumour cell line growth inhibition, 48 h; in the data active means GI50 below about 0.43 µM; inactive means the rest
Answer with one of the outcomes active, inactive

Task item: Hi team, can someone confirm the assay call for `C[C@@]1(c2ncncc2F)NC(=O)c2cc(-c3cn[nH]c3)ccc21` ?
Reply: inactive

Task item: Hi team, can someone confirm the assay call for `CCOC(=O)N1C/C(=C/c2ccc(OC)cc2)C(=O)/C(=C/c2ccc(OC)cc2)C1` ?
Reply: active

Task item: Hi team, can someone confirm the assay call for `C#CCOc1ccc2ncnc(Nc3ccc(NC(=O)CCl)cc3)c2c1` ?
Reply: inactive

Task item: Hi team, can someone confirm the assay call for `O=C(Nc1cccc(C(F)(F)F)c1)c1cccc(NC2=C(Cl)C(=O)N(Cc3ccccc3)C2=O)c1` ?
Reply: inactive

Task item: Hi team, can someone confirm the assay call for `C[C@@H]1CC[C@H]2C(COC/C=C/COCC3=C(C(F)(F)F)O[C@@H]4O[C@@]5(C)CC[C@H]6[C@H](C)CC[C@@H]3[C@@]46OO5)=C(C(F)(F)F)O[C@@H]3O[C@@]4(C)CC[C@@H]1[C@]32OO4` ?
Reply: active

Task item: Hi team, can someone confirm the assay call for `CN1CCN(Cc2ccc(NC(=O)c3[nH]ncc3Nc3ncnc4sccc34)cc2)CC1` ?
Reply: active

* * *

- Tested on: HT29 colon
- Procedure details: NCI tumour cell line growth inhibition, 48 h
Measure name: TGI

{"Compound": "O=c1oc2cc(O)ccc2c(O)c1C(c1ccccn1)c1c(O)c2ccc(O)cc2oc1=O", "Experimental target": "HT29 colon", "Measure name": "TGI", "Value": "> 100 µM"}
{"Compound": "CCOC(=O)N1C/C(=C/c2ccc(OC)cc2)C(=O)/C(=C/c2ccc(OC)cc2)C1", "Experimental target": "HT29 colon", "Measure name": "TGI", "Value": "2.53 µM"}
{"Compound": "C=C(C)[C@@H]1CC[C@@H](C)[C@](O)([C@@H]2C[C@@H]([C@H](COC(=O)c3ccccc3)OC(=O)c3ccccc3)OC2=O)C1", "Experimental target": "HT29 colon", "Measure name": "TGI", "Value": "> 100 µM"}
{"Compound": "COc1ccc(-c2c3c(n(C4OC(CO)C(O)C(O)C4O)c(=S)c2C#N)CC(C)(C)CC3=O)cc1 (centres undefined)", "Experimental target": "HT29 colon", "Measure name": "TGI", "Value": "> 100 µM"}
{"Compound": "Cc1ccc(S(=O)(=O)[N-]C2C(=O)c3ccccc3C(=O)C2[n+]2cccc(C(N)=O)c2)cc1 (centres undefined)", "Experimental target": "HT29 colon", "Measure name": "TGI", "Value": "> 100 µM"}

Next, consider the following compound.
Task item: Look up and report TGI, with HT29 colon as system, for `O=C(Nc1cccc(C(F)(F)F)c1)c1cccc(NC2=C(Cl)C(=O)N(Cc3ccccc3)C2=O)c1`
Reply: > 100 µM

* * *

- System: MALME-3M melanoma
- Procedure details: NCI tumour cell line growth inhibition, 48 h
Here the recorded TGI is given for each entry.

{"Molecule": "NC1=NC2(O)c3ccccc3C(=O)C2(O)N1 (stereo not drawn)", "TGI": "> 100 µM"}
{"Molecule": "COc1cc(-c2nn(C(=O)NS(=O)(=O)c3ccc(C)cc3)cc2-c2ccncc2)ccc1Cl", "TGI": "15.6 µM"}
{"Molecule": "COc1ccc(NC(=O)c2sc3nc(C)c(C(O)c4ccc(OC)cc4)cc3c2N)cc1 (stereo not drawn)", "TGI": "> 50 µM"}

Task item: Look up and report TGI, with MALME-3M melanoma as system, for `Nc1nc(N)nc(-c2cnccn2)n1`
Reply: > 100 µM

Task item: Look up and report TGI, with MALME-3M melanoma as system, for `O=C(NCCCNC(=O)OCc1ccc2c(Br)cc(Br)c(O)c2n1)OCc1ccc2c(Br)cc(Br)c(O)c2n1`
Reply: > 100 µM

Task item: Look up and report TGI, with MALME-3M melanoma as system, for `O=C1SC(c2ccc(Cl)cc2)(c2ccc(Cl)cc2)c2ccccc21`
Reply: > 100 µM

Task item: Look up and report TGI, with MALME-3M melanoma as system, for `O=C(CCC(=O)N/N=C/c1ccccc1O)N/N=C/c1ccccc1O`
Reply: > 100 µM

Task item: Look up and report TGI, with MALME-3M melanoma as system, for `BrC(Br)(Br)c1cnc2ccccc2n1`
Reply: 5.28 µM

* * *

- System: SF-268 CNS
- Procedure details: NCI tumour cell line growth inhibition, 48 h
Measure name: TGI

The examples below pair each entry with its known result.
{"Compound": "CC1=Nc2c([nH]c(=S)[nH]c2=O)NC(c2ccc(Cl)c(Cl)c2)C1 (stereo unspecified)", "TGI": "> 93.1 µM"}
{"Compound": "C[C@]12CC(c3ccccc3O1)C(C#N)C(=O)N2 (stereo partly specified)", "TGI": "> 100 µM"}
{"Compound": "COc1ccc(OC)c(NC(=O)C(=O)Nn2c(=S)[nH]c3ccccc3c2=O)c1", "TGI": "> 100 µM"}

Task item: Give the reported TGI for this compound. O=C1NC(=O)C2(CCC(O)C2)c2cc[n+]([O-])cc21 (stereo unspecified)
Reply: > 100 µM

Task item: Give the reported TGI for this compound. COc1ccc(NC(=O)c2sc3nc(C)c(C(O)c4ccc(OC)cc4)cc3c2N)cc1 (stereo unspecified)
Reply: > 50 µM

Task item: Give the reported TGI for this compound. `CCOC(=O)CNC(=O)CCCn1c(=O)c2c3ccccc3n(C)c2n2nnc(-c3ccccc3)c12`
Reply: > 50 µM

* * *

Here the recorded TGI is given for each entry.
- System: M14 melanoma
- Procedure details: NCI tumour cell line growth inhibition, 48 h

Task item: Give the reported TGI for this compound. `CCOc1ccc(N/C(=C(/C(Cl)=C(/Cl)NCCO)[N+](=O)[O-])n2nnc3ccccc32)cc1`
Reply: > 100 µM

Task item: Give the reported TGI for this compound. COc1cc2ccc1-c1cc(ccc1O)CC1c3cc4c(cc3CCN1C)Oc1c(OC)cc3c(c1O4)C(C2)N(C)CC3 (stereo not drawn)
Reply: 3.32 µM

Task item: Give the reported TGI for this compound. `c1ccc2c[n+](CCCCCCCCCC[n+]3ccc4ccccc4c3)ccc2c1`
Reply: > 10 µM

Task item: Give the reported TGI for this compound. `Cc1ccccc1-n1c(/C=C\c2ccccn2)nc2ccccc2c1=O`
Reply: 33.9 µM

Task item: Give the reported TGI for this compound. `O=C1/C(=C/c2ccc(Cl)cc2)NC(=S)N1CN1CCOCC1`
Reply: > 100 µM

Task item: Give the reported TGI for this compound. `CCOC(=O)c1c(C)n(CC(C)C)c2c1cc1oc(=O)c(=O)n3cnc2c13`
Reply: > 50 µM

Task item: Give the reported TGI for this compound. `O=C(O)c1ccccn1`
Reply: > 100 µM

Task item: Give the reported TGI for this compound. Cc1c(C2Cc3ccccc3N2C(=O)/C=C\C(=O)O)c2ccccc2n1C (stereo not drawn)
Reply: 76.2 µM

Task item: Give the reported TGI for this compound. COC(=O)C1=C(c2cc(OC)c(OC)c(OC)c2)OC(c2cc(OC)c(OC)c(OC)c2)C1COC(C)=O (stereo not drawn)
Reply: > 100 µM

Task item: Give the reported TGI for this compound. `C=CCNC(=O)/C(Cc1cc(Br)c(OC)c(Br)c1O)=N\O`
Reply: 23.6 µM

Task item: Give the reported TGI for this compound. `NS(=O)(=O)c1ccc(NC(=O)CC(=O)Nc2ccc(S(N)(=O)=O)cc2)cc1`
Reply: > 100 µM

Task item: Give the reported TGI for this compound. `O=C1OC(c2ccccc2)=N/C1=C\c1c(O)cc(O)cc1O`
Reply: > 100 µM

Task item: Give the reported TGI for this compound. `O=C(N/C(=C\c1ccc(Br)cc1)c1nc2ccccc2s1)c1ccccc1`
Reply: > 100 µM

Provenance of the data: PubChem BioAssay (NCI)
